# Tested on: Mus musculus
# test summary: Thrombotic toxicity in ICR mouse assessed as tail bleeding time at 1.3 mmol/kg, ip after 30 mins
# Format: organism-based
# condition context: in vivo, 0.5 h
Recorded Activity for the following molecules
Lab note: write values as number then unit, every time.

For orientation, consider the following solved cases.
CC1(C)N=C(c2ccccc2F)N(O)C1(C)C ... 119 s
CC1(C)N=C(c2ccccc2O)N(O)C1(C)C ... 119 s
COc1cc(C2=NC(C)(C)C(C)(C)N2O)ccc1O ... 119 s
CC1(C)N=C(c2cccc(O)c2)N(O)C1(C)C ... 118 s

The recorded Activity for `CN(C)c1ccc(C2=NC(C)(C)C(C)(C)N2O)cc1` is 117 s

For `CC1(C)N=C(c2ccccc2[N+](=O)[O-])N(O)C1(C)C` the molecule record lists Activity as 119 s

Form field Activity, entry `CC1(C)N=C(c2ccc([N+](=O)[O-])cc2)N(O)C1(C)C` : 117 s

The measured Activity associated with `CC1(C)N=C(c2ccc(O)cc2)N(O)C1(C)C` reads 119 s
